molecular target: human URAT1 (Homo sapiens, UniProt Q96S37); construct: The full-length hURAT1 cDNA was obtained from the vector pCMV6-XL5 and subcloned into the expression vector pCMV6-Neo; assay: URAT1 inhibition assay, [8-14C] urate uptake in hURAT1-HEK cells; type: cell-based; details: drug concentration typically 10 micromolar, 50 μM [8-14C] urate, read-out: % of Inhibition (uric acid uptake)
Sequence (Q96S37 whole entry): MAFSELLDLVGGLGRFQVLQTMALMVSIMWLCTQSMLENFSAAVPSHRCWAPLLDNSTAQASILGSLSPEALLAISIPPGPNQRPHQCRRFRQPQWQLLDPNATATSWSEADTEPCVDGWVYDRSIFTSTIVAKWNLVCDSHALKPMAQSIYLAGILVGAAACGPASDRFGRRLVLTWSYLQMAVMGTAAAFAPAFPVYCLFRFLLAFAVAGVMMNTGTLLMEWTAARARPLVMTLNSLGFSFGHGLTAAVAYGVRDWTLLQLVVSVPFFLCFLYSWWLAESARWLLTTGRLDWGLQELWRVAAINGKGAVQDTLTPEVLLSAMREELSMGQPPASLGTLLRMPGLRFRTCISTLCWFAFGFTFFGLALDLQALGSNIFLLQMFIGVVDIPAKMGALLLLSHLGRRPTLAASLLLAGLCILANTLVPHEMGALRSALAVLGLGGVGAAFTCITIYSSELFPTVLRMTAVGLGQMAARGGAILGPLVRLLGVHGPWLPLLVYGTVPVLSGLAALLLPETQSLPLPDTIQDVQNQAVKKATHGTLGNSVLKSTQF
PROPERTY_MEASURED: inhibition at 10 µM (%)

COMPOUND: Cc1cccc(C)c1COc1ccccc1CC(=O)O
TESTED_TARGET: human URAT1 (Homo sapiens, UniProt Q96S37)
ENDPOINT_RESULT: 49

COMPOUND: Cc1cccc(C)c1COc1cccc(CCC(=O)O)c1
TESTED_TARGET: human URAT1 (Homo sapiens, UniProt Q96S37)
ENDPOINT_RESULT: 89

COMPOUND: COc1ccc(CC(=O)O)cc1OCc1c(C)cccc1C
TESTED_TARGET: human URAT1 (Homo sapiens, UniProt Q96S37)
ENDPOINT_RESULT: 99.4

COMPOUND: Cc1cccc(C)c1COc1cccc(C(C)(C)C(=O)O)c1
TESTED_TARGET: human URAT1 (Homo sapiens, UniProt Q96S37)
ENDPOINT_RESULT: 90.1

COMPOUND: Cc1ccc(C)c(COc2ccc(C(=O)CCC(=O)O)cc2)c1
TESTED_TARGET: human URAT1 (Homo sapiens, UniProt Q96S37)
ENDPOINT_RESULT: 7.95

COMPOUND: Cc1cccc(C)c1COc1cccc(CCCCC(=O)O)c1
TESTED_TARGET: human URAT1 (Homo sapiens, UniProt Q96S37)
ENDPOINT_RESULT: 88

COMPOUND: COC(=O)CC(=O)c1cccc(OCc2c(C)cccc2C)c1
TESTED_TARGET: human URAT1 (Homo sapiens, UniProt Q96S37)
ENDPOINT_RESULT: 21.6

COMPOUND: Cc1cccc(C)c1COc1cccc(C(=O)CCC(=O)O)c1
TESTED_TARGET: human URAT1 (Homo sapiens, UniProt Q96S37)
ENDPOINT_RESULT: 86.1

COMPOUND: O=C(O)CCC(=O)c1ccc(OCc2ccccc2)cc1
TESTED_TARGET: human URAT1 (Homo sapiens, UniProt Q96S37)
ENDPOINT_RESULT: 5.99

COMPOUND: Cc1cccc(C)c1COc1cc(CC(=O)O)ccc1F
TESTED_TARGET: human URAT1 (Homo sapiens, UniProt Q96S37)
ENDPOINT_RESULT: 93

COMPOUND: O=C(O)CCC(=O)c1ccc(OCc2c(F)cccc2F)cc1
TESTED_TARGET: human URAT1 (Homo sapiens, UniProt Q96S37)
ENDPOINT_RESULT: 26.8

COMPOUND: O=C(O)Cc1cccc(OCc2ccccc2)c1
TESTED_TARGET: human URAT1 (Homo sapiens, UniProt Q96S37)
ENDPOINT_RESULT: 26.9

COMPOUND: Cc1cccc(C)c1COc1cccc(C2(C(=O)O)CC2)c1
TESTED_TARGET: human URAT1 (Homo sapiens, UniProt Q96S37)
ENDPOINT_RESULT: 90.3

COMPOUND: COc1cc(C(=O)CCC(=O)O)ccc1OCc1c(C)cccc1C
TESTED_TARGET: human URAT1 (Homo sapiens, UniProt Q96S37)
ENDPOINT_RESULT: 51.8

COMPOUND: COc1ccccc1COc1ccc(C(=O)CCC(=O)O)cc1
TESTED_TARGET: human URAT1 (Homo sapiens, UniProt Q96S37)
ENDPOINT_RESULT: 3.7

COMPOUND: O=C(O)CCC(=O)c1ccc(OCc2ccccn2)cc1
TESTED_TARGET: human URAT1 (Homo sapiens, UniProt Q96S37)
ENDPOINT_RESULT: 41.3

COMPOUND: Cc1cccc(C)c1COc1cccc(CC(=O)O)c1
TESTED_TARGET: human URAT1 (Homo sapiens, UniProt Q96S37)
ENDPOINT_RESULT: 96.5

COMPOUND: Cc1ccc(CC(=O)O)cc1OCc1c(C)cccc1C
TESTED_TARGET: human URAT1 (Homo sapiens, UniProt Q96S37)
ENDPOINT_RESULT: 95.9

COMPOUND: Cc1cccc(C)c1COc1cccc(C(=O)CC(C)(C)C(=O)O)c1
TESTED_TARGET: human URAT1 (Homo sapiens, UniProt Q96S37)
ENDPOINT_RESULT: 76.5

COMPOUND: Cc1cccc(C)c1COc1cccc(C(C)C(=O)O)c1 (centres unmarked)
TESTED_TARGET: human URAT1 (Homo sapiens, UniProt Q96S37)
ENDPOINT_RESULT: 89.1

COMPOUND: O=C(O)Cc1cccc(OCc2ccc(C(F)(F)F)cc2C(F)(F)F)c1
TESTED_TARGET: human URAT1 (Homo sapiens, UniProt Q96S37)
ENDPOINT_RESULT: 45.4

COMPOUND: Cc1ccc(COc2cccc(CC(=O)O)c2)c(C)c1
TESTED_TARGET: human URAT1 (Homo sapiens, UniProt Q96S37)
ENDPOINT_RESULT: 64

COMPOUND: O=C(O)CCC(=O)c1ccc(OCc2ccccc2Cl)cc1
TESTED_TARGET: human URAT1 (Homo sapiens, UniProt Q96S37)
ENDPOINT_RESULT: 2.3

Cited source for all entries: patent US9115072B2
